Where do these numbers come from? They come from ChEMBL document CHEMBL1139875.

Tested on: Rattus norvegicus
Assay: Antihyperalgesic effects in Sprague-Dawley rat CCI model assessed as duration of paw withdrawal at 100 mg/kg, ip after 2 hrs
Assay type: functional
Conditions: route intraperitoneal
OBSERVATION_TYPE: Activity

{"CHEMICAL_STRING": "Nc1nnc(-c2cccc(Cl)c2Cl)c(N)n1", "EXPERIMENTAL_RESULT": "33.7 s"}
{"CHEMICAL_STRING": "O=C(O)CCCNC(=O)N/N=C/c1ccccc1O", "EXPERIMENTAL_RESULT": "4.1 s"}
{"CHEMICAL_STRING": "O=C(O)CCCNC(=O)N/N=C/c1ccc(Cl)cc1", "EXPERIMENTAL_RESULT": "4.2 s"}

Each of the following entries comes with a recorded value; kindly state Activity for each.
1. O=C(O)CCCNC(=O)N/N=C1\C(=O)Nc2ccccc21
2. NCC1(CC(=O)O)CCCCC1
3. C/C(=N\NC(=O)NCCCC(=O)O)c1ccc(C)cc1
4. O=C(O)CCCNC(=O)NN=C1CCCC1

A)
1: 5 s; 2: 9.2 s; 3: 5.3 s; 4: 22.8 s
